The following compounds are listed with their measured LC50 RWW values.
# Tested on: Rice water weevil [Lissorhoptrus oryzophilus (Kuschel)]
# PROTOCOL TEXT: Rice water weevil topical (RWW), 48 hours
# Type: in vivo
# ASSAY CONTEXT: μg of test compound per weevil, female adults

Use the examples below as a reference point.
Given the entry CC(C)C(=Nc1ccc(Br)c(Cl)c1)OCc1ccc(F)c(Oc2ccc(Cl)cc2)c1 [Compound 381] , what LC50 RWW was observed with Rice water weevil [Lissorhoptrus oryzophilus (Kuschel)]?
> 2.5 µg

Form entry - test system: Rice water weevil [Lissorhoptrus oryzophilus (Kuschel)]; read-out: LC50 RWW; compound: CC(C)C(=Nc1ccc(Br)cc1)OCc1ccc(F)c(Oc2ccc(Cl)cc2)c1 [Compound 378]
> 2.5 µg

What value of LC50 RWW on Rice water weevil [Lissorhoptrus oryzophilus (Kuschel)] does CC(C)C(=Nc1ccc(F)c(Cl)c1)OCc1ccc(F)c(Oc2ccc(Cl)cc2)c1 [Compound 267] have?
0.11 µg

Rice water weevil [Lissorhoptrus oryzophilus (Kuschel)] / LC50 RWW / CC(C)C(=Nc1ccc(F)c(Br)c1)OCc1ccc(F)c(Oc2ccc(F)cc2)c1 [Compound 273] : value?
> 2.5 µg

Reported LC50 RWW for Rice water weevil [Lissorhoptrus oryzophilus (Kuschel)], given CC(C)C(=Nc1ccc(Cl)c(OCC(F)(F)F)c1)OCc1ccc(F)c(Oc2ccc(Cl)cc2)c1 [Compound 452] ?
0.1 µg

We now examine a further compound.
Form field: LC50 RWW recorded for CC(C)C(=Nc1ccc2c(c1)OCO2)OCc1ccc(F)c(Oc2ccccc2)c1 [Compound 181] with Rice water weevil [Lissorhoptrus oryzophilus (Kuschel)] (enter value)
> 2.5 µg

Measured values drawn from patent US5045566A for this set.
